Where do these numbers come from? They come from paper PMC12186843.

assay: Metabolic stability in mouse liver microsomes; format: in vitro ADME; conditions: mouse, liver microsomes, pH 7.4; after 15 min of biotransformation; read-out: % remaining of the parent compound MLMs
REPORTED_PROPERTY: remaining at 0.25 h (%)
Reply with just the number (in %).

-- ask State the recorded remaining at 0.25 h for this entry: Cc1ccc2nc(-c3ccc(F)cc3)c(CC(=O)N3CC(C)NC(C)C3)n2c1 (stereo not shown)
-- reply 68

---

experiment: Metabolic stability in human liver microsomes; type: in vitro ADME; conditions: human, liver microsomes, pH 7.4; read-out: Clint HLMs
REPORTED_PROPERTY: microsomal CLint

-- ask Sample Cc1ccc2nc(-c3ccc(F)cc3)c(CC(=O)N3CC(C)NC(C)C3)n2c1 (stereo not shown) — what was its microsomal CLint?
-- reply < 40 µL/min/mg
